Tested on: P. aeruginosa MB9798 (efflux+, IMP-1 plasmid)
Settings: efflux + (MB9798) strain; imipenem at 2 μg/mL; in the presence of a class A, C, D serine β-lactamase inhibitor closely related to relebactam
measured-metric: MB9798 MITC95 P. aeruginosa uM Efflux WT

* NS(=O)(=O)c1c(S(=O)(=O)N[C@@H]2CCNC2)ccc(NCC2CCNCC2)c1-c1nn[nH]n1 | 3.13 µM
* NS(=O)(=O)c1c(S(=O)(=O)N[C@@H]2CCNC2)ccc(N2CCCC(CO)C2)c1-c1nnn[nH]1 (stereo partly shown) | 3.13 µM
* NS(=O)(=O)c1c(S(=O)(=O)C2CNC2)ccc(N2CCC(CO)CC2)c1-c1nnn[nH]1 | 6.25 µM
* NS(=O)(=O)c1c(S(=O)(=O)N[C@@H]2CCNC2)ccc(N2CCCC(=O)C2=O)c1-c1nn[nH]n1 | 12.50 µM
* NC[C@H](N)CNS(=O)(=O)c1ccc(N2CCN(CCO)CC2)c(-c2nnn[nH]2)c1S(N)(=O)=O | 1.56 µM
* NC[C@@H](O)CNS(=O)(=O)c1ccc(N2CCC(C(N)CO)CC2)c(-c2nn[nH]n2)c1S(N)(=O)=O (single isomer, unassigned) [Example 181] | 0.78 µM
* N[C@@H]1CCCN(c2ccc(S(=O)(=O)N[C@@H]3CCNC3)c(S(N)(=O)=O)c2-c2nn[nH]n2)C1=O | 6.25 µM
* NCCNS(=O)(=O)c1ccc(N2CCN(CCCO)CC2)c(-c2nnn[nH]2)c1S(N)(=O)=O | 1.56 µM
* NS(=O)(=O)c1c(S(=O)(=O)N[C@@H]2CCNC2)ccc(N2CCCC(O)C2=O)c1-c1nn[nH]n1 (stereo partly shown) | 3.13 µM
* NC1(CO)CCN(c2ccc(S(=O)(=O)N[C@@H]3CCNC3)c(S(N)(=O)=O)c2-c2nnn[nH]2)C1 (stereo partly shown) | 6.25 µM
* NC(=O)C1CCN(c2ccc(S(=O)(=O)N[C@@H]3CCNC3)c(S(N)(=O)=O)c2-c2nnn[nH]2)CC1 | 3.13 µM
* NCC1CCN(c2ccc(S(=O)(=O)NC[C@@H](N)CN)c(S(N)(=O)=O)c2-c2nn[nH]n2)CC1 | 50.00 µM
* NCCC1CCN(c2ccc(S(=O)(=O)N[C@H](CN)CO)c(S(N)(=O)=O)c2-c2nn[nH]n2)CC1 | 0.78 µM
* NC[C@@H](O)CNS(=O)(=O)c1ccc(N2CCC3(CC2)CNC(N)=N3)c(-c2nn[nH]n2)c1S(N)(=O)=O | 0.78 µM
* NS(=O)(=O)c1c(S(=O)(=O)N[C@@H]2CCNC2)ccc(N2CCCCC(O)C2)c1-c1nnn[nH]1 (stereo partly shown) | 3.13 µM
* NC[C@@H](O)CNS(=O)(=O)c1ccc(N2CCC[C@@H](CN)C2)c(-c2nnn[nH]2)c1S(N)(=O)=O | 3.13 µM
* NS(=O)(=O)c1c(S(=O)(=O)N[C@@H]2CCNC2)ccc(N2CCCN(CCO)CC2)c1-c1nnn[nH]1 | 12.50 µM
* NCCN1CCN(c2ccc(S(=O)(=O)NC[C@H](O)CN)c(S(N)(=O)=O)c2-c2nn[nH]n2)CC1=O | 3.13 µM
* NS(=O)(=O)c1c(S(=O)(=O)N[C@@H]2CCNC2)ccc(N2CCC(OCCO)CC2)c1-c1nnn[nH]1 | 6.25 µM
* NC[C@H]1CCCN(c2ccc(S(=O)(=O)N[C@@H]3CCNC3)c(S(N)(=O)=O)c2-c2nnn[nH]2)C1 | 6.25 µM
* NCC1CCN(c2ccc(S(=O)(=O)C[C@H](O)CN)c(S(N)(=O)=O)c2-c2nn[nH]n2)CC1 | 0.78 µM
* NCCOC1CCN(c2ccc(S(=O)(=O)NC[C@H](O)CN)c(S(N)(=O)=O)c2-c2nn[nH]n2)CC1 | 0.78 µM
* CN(C)CC1(O)CCN(c2ccc(S(=O)(=O)N[C@@H]3CCNC3)c(S(N)(=O)=O)c2-c2nnn[nH]2)CC1 | 12.50 µM
* CN(CCO)CCN(C)c1ccc(S(=O)(=O)NC[C@H](O)CN)c(S(N)(=O)=O)c1-c1nn[nH]n1 | 50.00 µM
* C[N+](C)(C)CCCCNc1ccc(S(=O)(=O)N[C@@H]2CCNC2)c(S(N)(=O)=O)c1-c1nnn[nH]1 | 25.00 µM
* NS(=O)(=O)c1c(S(=O)(=O)N[C@@H]2CCNC2)ccc(N2CC[C@@H](O)C2)c1-c1nnn[nH]1 | 3.13 µM
* NC[C@@H](O)CNS(=O)(=O)c1ccc(N2CCC(O)CC2)c(-c2nn[nH]n2)c1S(N)(=O)=O | 1.56 µM
* NC[C@@H](O)CNS(=O)(=O)c1ccc(N2CC[C@@H](CN)[C@@H](F)C2)c(-c2nn[nH]n2)c1S(N)(=O)=O (racemic) | 0.78 µM
